# Protocol notes: Acute toxicity in mice, intravenous
# Format: in vivo
# Details: intravenous at the tail, ICR strain male mice, group of 5; 50% solution in polyethylene glycol 300
Measured endpoint: dose up to which no dead case occurred (acute toxicity)

>  <Compound>
NC(=O)C(F)(F)C(O)(Cn1cncn1)c1ccc(F)cc1F (stereo not drawn) [Example 10]

>  <Reported value>
≥ 200 mg/kg

$$$$
>  <Compound>
O=C(NC1CC1)C(F)(F)C(O)(Cn1cncn1)c1ccc(F)cc1F (stereo not drawn)

>  <Reported value>
≥ 100 mg/kg

$$$$
>  <Compound>
CCNC(=O)C(F)(F)C(O)(Cn1cncn1)c1ccc(F)cc1F (stereo not drawn)

>  <Reported value>
≥ 100 mg/kg

$$$$
>  <Compound>
NC(=O)C(F)(F)C(O)(Cn1cncn1)c1ccc(F)cc1Cl (stereo not drawn) [Example 79]

>  <Reported value>
≥ 200 mg/kg

$$$$
>  <Compound>
NC(=O)C(F)(F)C(O)(Cn1cncn1)c1ccc(F)cc1Cl (single isomer, unassigned) [Example 146]

>  <Reported value>
≥ 200 mg/kg

$$$$
>  <Compound>
NC(=O)C(F)(F)C(O)(Cn1cncn1)c1ccc(F)cc1F (single isomer, unassigned) [Example 142]

>  <Reported value>
≥ 200 mg/kg

$$$$
